system: P388 leukemia ip, CD2F1 mice, survival T/C; experiment: NCI In Vivo Anticancer Drug Screen. Data for tumor model P388 Leukemia (intraperitoneal) in CD2F1 (CDF1) mice; conditions: endpoint: median survival time; dose: 120.0 mg/kg/injection; schedule: Q01DX005 (ip); vehicle: saline with Tween-80; higher = longer survival
Toxic doses and inconclusive results are not listed.
# T/C values compiled below

query: Name the recorded T/C of the compound listed here: `O=[N+]([O-])c1cccnc1N=Nc1c(O)[nH]c2ccccc12`
result: 101 % of control

query: # return recorded T/C for input `COc1ccc(C2=C(C#N)C(=O)OCCN2C)cc1`
result: 100 % of control

query: Could you please provide reported T/C for `O=C(N/C(=C\c1ccc2c(c1)OCO2)c1nc2ccccc2s1)c1ccccc1` ? Thanks!
result: 121 % of control

Others:
query: # return recorded T/C for input `C[Si](C)(C)Cc1ccccc1C(=O)O`
result: 103 % of control

query: Report measured T/C; entry is `O=C1Nc2ccccc2NC(=O)C(=C(c2ccccc2)c2ccccc2)C1=C(c1ccccc1)c1ccccc1`
result: 89 % of control

query: Quote T/C reported for CC1(O)COC1(c1ccccc1)c1ccccc1 (stereo not given) please.
result: 96 % of control

====

test system: P388 leukemia ip, CD2F1 mice, survival T/C; experiment: NCI In Vivo Anticancer Drug Screen. Data for tumor model P388 Leukemia (intraperitoneal) in CD2F1 (CDF1) mice; settings: endpoint: median survival time; dose: 50.0 mg/kg/injection; schedule: Q01DX009 (ip); vehicle: water
Toxic doses and inconclusive results are not listed. How the source made its calls: active means survival T/C of 150% or more; inactive means T/C below 125% in these data.
Permitted responses: TRUE for active, FALSE for inactive

query: # lookup: test call for `O=C(N/N=C/c1cccc(O)c1)C(=O)N/N=C/c1cccc(O)c1`
result: FALSE

query: Outcome logged for NCCC(=O)OC1CCCc2c(O)c3c(c(O)c21)C(=O)c1ccccc1C3=O (stereo not given) in this assay:
result: FALSE

query: Kindly provide the recorded test outcome for the following compound: `CS(=O)(=O)N/N=C/C(=O)O`
result: TRUE

Others:
query: Per the records of this test, what outcome belongs to COc1cccc2c1C(=O)c1c(O)c3c(c(O)c1C2=O)CC(O)(c1csc(N2CCN(C)CC2)n1)CC3O (stereo not given) ?
result: FALSE

query: // param item: CCSC(C(O)C(O)C(O)C(O)CO)n1cnc2c(=S)nc[nH]c21 (stereo not given) ; yields the recorded call
result: FALSE

====

test system: P388 leukemia ip, CD2F1 mice, survival T/C; assay: NCI In Vivo Anticancer Drug Screen. Data for tumor model P388 Leukemia (intraperitoneal) in CD2F1 (CDF1) mice; settings: endpoint: median survival time; dose: 50.0 mg/kg/injection; schedule: Q01DX009 (ip); vehicle: saline with Tween-80; higher = longer survival
Inconclusive results and toxic doses are left out.
MEASURED PARAMETER: T/C

Known results for compounds:
query: Report T/C, nothing else, for this compound: `CCCCCCC[n+]1cccc(S(=O)(=O)N2CCOCC2)c1`
result: 98 % of control

query: Output T/C of CCOC(=O)CN1CN(CCc2ccccc2)CC(C)(C)C1OCC (stereo unspecified)
result: 104 % of control

query: Read off the recorded T/C for `O=C(O)c1cc(C(=O)C(=O)c2cc(C(=O)O)c(O)c3ccccc23)c2ccccc2c1O`
result: 95 % of control

query: In one line, give reported T/C of the entry Clc1ccc(OCCC(Cn2ccnc2)c2ccc(Cl)cc2Cl)c(Cl)c1 (stereo unspecified) .
result: 101 % of control

query: Provide only the value of recorded T/C for `Cc1cccc(Oc2cnc(=O)[nH]c2)c1`
result: 100 % of control

Next up:
query: Indicate its recorded T/C; the compound in question is `CC1(C)CC(OC(=O)c2c3ccccc3c3ccc4cccc5ccc2c3c54)CC(C)(C)N1O`
result: 91 % of control
